system: human leukocyte elastase (hLE) (Homo sapiens, UniProt P08246)
Construct: Neutrophils (1.4 billion) were isolated from whole blood obtained from a single healthy laboratory donor; from tissue; host or cells: neutrophils from whole blood of a single healthy donor
Sequence (P08246 30-247 limits assumed): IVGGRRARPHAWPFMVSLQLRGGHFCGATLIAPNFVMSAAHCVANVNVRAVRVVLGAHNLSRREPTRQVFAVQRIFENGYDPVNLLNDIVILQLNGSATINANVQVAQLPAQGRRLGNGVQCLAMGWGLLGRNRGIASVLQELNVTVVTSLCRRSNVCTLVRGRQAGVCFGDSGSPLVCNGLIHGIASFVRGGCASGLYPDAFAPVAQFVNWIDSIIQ
method description: In vitro inhibition of hLE (cleavage of MeOSuc-AAPV-NA)
Assay type: biochemical
measurement context: hLE Ki [μM], Table 2; substrate MeOSuc-AAPV-NA 200 μM, pH 7.4, 37 C
Where a SMILES comes first, the peptide text is derived from it.
quantity measured: Ki (µM)
One number for each entry, in µM.

Noted for CC[C@H](C)[C@H](NC(=O)[C@H](CC(=O)O)NC(=O)[C@H](C)NC(=O)[C@H](CO)NC(=O)[C@H](Cc1c[nH]c2ccccc12)NC(=O)[C@H](Cc1ccccc1)NC(=O)[C@@H](NC(=O)[C@H](CC(C)C)NC(=O)[C@@H](NC(=O)[C@@H](N)CCC(=O)O)[C@@H](C)CC)[C@@H](C)CC)C(=O)O [Peptide 25, Glu-Ile-Leu-Ile-Phe-Trp-Ser-Ala-Asp-Ile] (H-EILIFWSADI-OH; N-terminus and C-terminus assumed) : its Ki reads 3
